- System: E. coli C 165
- experimentDescription: MIC, test tube series dilution test, E. coli C 165
- Type: cell-based
- conditionsUsed: 24 hours, 37°C
MIC values, listed per item
Dear colleague, please return just the value in U/ml, with no unit written.

Per the records, this compound ( CC1(C)S[C@@H]2[C@H](NC(=O)[C@H](NC(=O)c3ccc(NC(=O)C4CCCC4)cc3)c3ccccc3)C(=O)N2[C@H]1C(=O)O [Example 7] ) has MIC equal to 8

Per the records, this compound ( CC1(C)S[C@@H]2[C@H](NC(=O)[C@H](NC(=O)c3ccc(NC(N)=O)cc3)c3ccccc3)C(=O)N2[C@H]1C(=O)O [Example 30] ) has MIC equal to 32

Per the records, this compound ( CC1(C)S[C@@H]2[C@H](NC(=O)[C@H](NC(=O)c3ccc(NC(=O)c4ccccc4)cc3)c3ccccc3)C(=O)N2[C@H]1C(=O)O [Example 25] ) has MIC equal to 16

Per the records, this compound ( CC1(C)S[C@@H]2[C@H](NC(=O)[C@H](NC(=O)c3ccc(N)cc3)c3ccccc3)C(=O)N2[C@H]1C(=O)O [Example 34] ) has MIC equal to 32

Per the records, this compound ( CC1(C)S[C@@H]2[C@H](NC(=O)[C@H](NC(=O)CNC(=O)c3ccc(NC(=O)C4CCCC4)cc3)c3ccccc3)C(=O)N2[C@H]1C(=O)O [Example 66] ) has MIC equal to 32

Per the records, this compound ( CC1(C)S[C@@H]2[C@H](NC(=O)[C@H](NC(=O)c3ccc(NC(=O)CCN=[N+]=[N-])cc3)c3ccccc3)C(=O)N2[C@H]1C(=O)O [Example 38] ) has MIC equal to 16

Per the records, this compound ( CC1(C)S[C@@H]2[C@H](NC(=O)[C@H](N)c3ccccc3)C(=O)N2[C@H]1C(=O)O [Ampicillin, D(-)-α-aminobenzylpenicillin, reference compound] ) has MIC equal to 8

Per the records, this compound ( COc1cc(OC)cc(C(=O)Nc2ccc(C(=O)N[C@@H](C(=O)N[C@@H]3C(=O)N4[C@@H]3SC(C)(C)[C@@H]4C(=O)O)c3ccccc3)cc2)c1 [Example 18] ) has MIC equal to 8

====

- System: Proteus morg. 932
- experimentDescription: MIC, test tube series dilution test, Proteus morg. 932
- Format: cell-based
- conditionsUsed: 24 hours, 37°C
measurementKind: MIC

Per the records, this compound ( `CC1(C)S[C@@H]2[C@H](NC(=O)[C@H](NC(=O)c3ccc(NC(=O)C=Cc4ccccc4)cc3)c3ccccc3)C(=O)N2[C@H]1C(=O)O` ) has MIC equal to 128 U/ml

Per the records, this compound ( `COc1cc(OC)cc(C(=O)Nc2ccc(C(=O)N[C@@H](C(=O)N[C@@H]3C(=O)N4[C@@H]3SC(C)(C)[C@@H]4C(=O)O)c3ccccc3)cc2)c1` ) has MIC equal to 128 U/ml

Per the records, this compound ( `CC1(C)S[C@@H]2[C@H](NC(=O)[C@H](NC(=O)c3ccc(NC(=O)c4ccccc4)cc3)c3ccccc3)C(=O)N2[C@H]1C(=O)O` ) has MIC equal to 16 U/ml

Per the records, this compound ( `CC1(C)S[C@@H]2[C@H](NC(=O)[C@H](NC(=O)CNC(=O)c3ccc(NC(=O)C4CCCC4)cc3)c3ccccc3)C(=O)N2[C@H]1C(=O)O` ) has MIC equal to > 256 U/ml

Per the records, this compound ( `CC1(C)S[C@@H]2[C@H](NC(=O)[C@H](NC(=O)CNC(=O)c3ccc(NC(=O)C4CCC4)cc3)c3ccccc3)C(=O)N2[C@H]1C(=O)O` ) has MIC equal to > 256 U/ml

Further cases:
Per the records, this compound ( `CC1(C)S[C@@H]2[C@H](NC(=O)[C@H](NC(=O)c3ccc(NC(=O)C4(O)CC4)cc3)c3ccccc3)C(=O)N2[C@H]1C(=O)O` ) has MIC equal to > 256 U/ml

Per the records, this compound ( `COc1ccc(C(=O)Nc2ccc(C(=O)N[C@@H](C(=O)N[C@@H]3C(=O)N4[C@@H]3SC(C)(C)[C@@H]4C(=O)O)c3ccccc3)cc2)cc1` ) has MIC equal to 256 U/ml

Per the records, this compound ( `CC1(C)S[C@@H]2[C@H](NC(=O)[C@H](NC(=O)CNC(=O)c3ccc(N)cc3)c3ccccc3)C(=O)N2[C@H]1C(=O)O` ) has MIC equal to > 256 U/ml

Per the records, this compound ( `CNC(=S)Nc1ccc(C(=O)N[C@@H](C(=O)N[C@@H]2C(=O)N3[C@@H]2SC(C)(C)[C@@H]3C(=O)O)c2ccccc2)cc1` ) has MIC equal to > 256 U/ml

Per the records, this compound ( `CC1(C)S[C@@H]2[C@H](NC(=O)[C@H](NC(=O)c3ccc(NC(=O)c4ccc(N)cc4)cc3)c3ccccc3)C(=O)N2[C@H]1C(=O)O` ) has MIC equal to > 256 U/ml
